Tested on: GFP
Experiment: EC50 of nanoparticle formulations, GFP siRNA
Assay type: cell-based
Conditions: nanoparticles Ionizable compound/DOPE/Cholesterol/DMPE-PEG 50/28/21/1 mol %
quantity-kind: EC50 (nM)
Just the number please, in nM, no unit attached.

Reference set (4 entries):
CCCCC/C=C\C/C=C\CCCCCCCCOC(=O)[C@H](CNC(=O)C[N+](C)(C)C)NC(=O)CCCCCCC/C=C\C/C=C\CCCCC [Compound C24] ... 92
CCCCC/C=C\C/C=C\CCCCCCCC(=O)OCCN(CCOC(=O)CCCCCCC/C=C\C/C=C\CCCCC)C(=O)CN1C[C@@H](O)[C@@H](O)C1 [Compound A6] ... 11
CCCCC/C=C\C/C=C\CCCCCCCCOC(=O)CC(CC(=O)OCCCCCCCC/C=C\C/C=C\CCCCC)NC(=O)OCCN(C)C [Compound E4] ... 2.7
CCCCC/C=C\C/C=C\CCCCCCCC(=O)OCCN(CCOC(=O)CCCCCCC/C=C\C/C=C\CCCCC)C(=O)CN1CCN(CCCO)CC1 [Compound AA] ... 22

# evaluate next
Dear colleague, I am looking for the recorded EC50 of the following compound: CCCCC/C=C\C/C=C\CCCCCCCC(=O)OCCN(CCOC(=O)CCCCCCC/C=C\C/C=C\CCCCC)C(=O)CN1C[C@@H](O)[C@H](O)C1 [Compound A5]
6.9

---

Assay: Particle size Z (ave) of siRNA lipid nanoparticle formulations
Assay type: physicochemical
Details: Table 8: nanoparticles Ionizable compound/DOPE/DOPC/Cholesterol/DMPE-PEG 50/28/0/21/1, 50/28/0/20/2 or 26/21/21/31/1 mol %
Z (ave) nm listing for selected molecules.
Answer format reminder: number followed by unit.

Reference set (3 entries):
CCCCC/C=C\C/C=C\CCCCCCCC(=O)OCCN(CCOC(=O)CCCCCCC/C=C\C/C=C\CCCCC)C(=O)CN1CCN(CCCO)CC1 ... 120 nm
CCCCC/C=C\C/C=C\CCCCCCCCOC(=O)CC(CC(=O)OCCCCCCCC/C=C\C/C=C\CCCCC)NC(=O)OCCN(C)C ... 131 nm
CCCCC/C=C\C/C=C\CCCCCCCCOC(=O)CC(CC(=O)OCCCCCCCC/C=C\C/C=C\CCCCC)NC(=O)SCCN(C)C ... 137 nm

Dear colleague, I am looking for the recorded Z (ave) nm of the following molecule: `CCCCCCCCCCCCCC(=O)OCCN(CCOC(=O)CCCCCCCCCCCCC)C(=O)CN1CC(CO)C1`
97 nm

Would you kindly repeat that for `CCCCC/C=C\C/C=C\CCCCCCCC(=O)OCCN(CCOC(=O)CCCCCCC/C=C\C/C=C\CCCCC)C(=O)CN1C[C@@H](O)[C@@H](O)C1` ?
121 nm

Would you kindly repeat that for CCCC/C=C\C/C=C\CCCCCCCCOC(=O)CC(CC(=O)OCCCCCCCC/C=C\C/C=C\CCCCC)NC(=O)C[N+](C)(C)C (stereo not shown) ?
111 nm

Would you kindly repeat that for `CCCCC/C=C\C/C=C\CCCCCCCCOC(=O)[C@H](CNC(=O)C[N+](C)(C)C)NC(=O)CCCCCCC/C=C\C/C=C\CCCCC` ?
127 nm

---

Test: pKa (Table 9, lipid formulations for siRNA)
Assay type: physicochemical
Conditions: only or first value of the cell
quantity-kind: pKa

CCCCC/C=C\C/C=C\CCCCCCCC(=O)OCCN(CCOC(=O)CCCCCCC/C=C\C/C=C\CCCCC)C(=O)CN1CCN(CCCO)CC1 ... 7.4
CCCCC/C=C\C/C=C\CCCCCCCC(=O)OCCN(CCOC(=O)CCCCCCC/C=C\C/C=C\CCCCC)C(=O)CN1C[C@@H](O)[C@@H](O)C1 ... 6.3
CCCCC/C=C\C/C=C\CCCCCCCCOC(=O)[C@@H]1C[C@@H](NC(=O)CCN(C)C)CN1C(=O)CCCCCCC/C=C\C/C=C\CCCCC ... 9.2

# evaluate next
Dear colleague, I am looking for the recorded pKa of the following molecule: `CCCCCCCCCCCCCC(=O)OCCN(CCOC(=O)CCCCCCCCCCCCC)C(=O)CN1C[C@H](O)[C@@H](O)C1`
5.8
